Source listed as patent US20240207432A1.

Assayed target: T1, human TROP2-his protein (human, UniProt P09758 27-274)
T1 construct: Biotin-labelled in the ELISAs, unlabelled analyte in Biacore; also called biotin-labeled human TROP2-his protein; biotin human Trop2-his
T1 sequence: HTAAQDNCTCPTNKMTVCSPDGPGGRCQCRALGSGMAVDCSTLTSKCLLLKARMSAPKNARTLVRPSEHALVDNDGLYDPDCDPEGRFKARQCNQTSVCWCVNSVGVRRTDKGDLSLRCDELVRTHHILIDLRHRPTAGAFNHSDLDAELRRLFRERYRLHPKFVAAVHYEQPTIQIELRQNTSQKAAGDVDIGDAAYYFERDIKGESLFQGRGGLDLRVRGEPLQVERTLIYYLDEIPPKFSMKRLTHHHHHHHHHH
Procedure summary: SPR Biacore T200, mAb captured on anti-mouse IgG CM5 chip, TROP2-his analyte
Would you kindly list kon for each of these binders?
// return numeric value only (unit: M⁻¹ s⁻¹, not printed)

Data request: Quick check: kon of mouse antibody C1B3B12D2 (antibody, V domains shown, Mouse monoclonal IgG purified from hybridoma supernatant) VH: QVQLQQSGPELVRPGTSVKMSCKAAGYTFTKFWIGWVKQRPGHGLEWIGNIYPGGAYINYNENFKGKATLTADTFSSTAYMQLNSLTSADSAIYYCAREGSSGYWGQGTTLTVSS VL: DIVMTQSPSSLTVTAGEKVTLSCKCSQSLLNSGTQENYLTWYQQKPGQPPKMLIYWASIREPGVPDRFTGSGSGTDFTLTINNVQAEDLAVYYCQHDYSYPFTFGSGTKLEIK ?
Data returned: 476000

Data request: Quick check: kon of mouse antibody B1G1F5A3 (antibody, V domains shown, Mouse monoclonal IgG purified from hybridoma supernatant) VH: EVQLQQSGPELVKPGTSVKMSCKASGYSFADYSMNWVRQSHGNSLEWIGYIYPNNGASGFNQKFKGKATLTVDKSSSTAYMELHSLTSEDSAVYYCAREQDNSGYCFDYWGQGTSLTVSS VL: DVVMTQTPLSLAVRLGDQASISCRSSLNLVHSNGNTFLHWYLQRPGQSPKLLIYKVSNRFSGVSDRFSGSGSGTDFTLKISRVEAEDLGVYFCSQTTHVPTFGGGTKLEIK ?
Data returned: 134000
